These measurements were taken from ChEMBL document CHEMBL3259738.

assay: Aqueous solubility of the compound at pH 7.4; format: physicochemical
MEASURED ATTRIBUTE: solubility (µM)
Enter your answer as a number in µM; do not include the unit.

// sample "Cc1ccccc1N1CCN(c2ccc(C(=O)NCCCc3nn[nH]n3)cc2NC(=O)c2coc(C3CC3)n2)CC1" , its solubility was 160

----------
experiment: Clearance in rat microsomes; format: ADME
Consider the following compounds; for each one, report its microsomal CLint.
Enter your answer as a number in µL/min/mg; do not include the unit.

// sample "Cc1ccccc1N1CCN(c2ccc(C(=O)NCCCN3CCCC3=O)cc2NC(=O)c2coc(C3CC3)n2)CC1" , its microsomal CLint was 225

// sample "Cc1ccccc1N1CCN(c2ccc(C(=O)NCCCc3nn[nH]n3)cc2NC(=O)c2coc(C3CC3)n2)CC1" , its microsomal CLint was 18

// sample "Cc1ccccc1N1CCN(c2ccc(C(=O)NCc3cccc(C(N)=O)c3)cc2NC(=O)c2ccco2)CC1" , its microsomal CLint was 31

// sample "Cc1ccccc1N1CCN(c2ccc(C(=O)NCCCN3CCOC3=O)cc2NC(=O)c2ccco2)CC1" , its microsomal CLint was 25

// sample "Cc1ccccc1N1CCN(c2ccc(C(=O)NCCCN3CCCC3=O)cc2NC(=O)c2ccco2)CC1" , its microsomal CLint was 233

// sample "Cc1ccccc1N1CCN(c2ccc(C(=O)NCCCN3C(=O)CCC3=O)cc2NC(=O)c2ccco2)CC1" , its microsomal CLint was 38

// sample "Cc1ccccc1N1CCN(c2ccc(C(=O)N[C@@H]3CCC[C@@H](O)[C@H]3O)cc2NC(=O)c2coc(C3CC3)n2)CC1" , its microsomal CLint was 13

----------
target: Follicle-stimulating hormone receptor (Homo sapiens); assay: Positive allosteric modulation of human FSH receptor expressed in CHO cells assessed as effect on FSH-induced cAMP accumulation at 50 uM after 1 hr by HTRF assay relative to FSH; type: functional, cell-based
Sequence (P23945 whole entry): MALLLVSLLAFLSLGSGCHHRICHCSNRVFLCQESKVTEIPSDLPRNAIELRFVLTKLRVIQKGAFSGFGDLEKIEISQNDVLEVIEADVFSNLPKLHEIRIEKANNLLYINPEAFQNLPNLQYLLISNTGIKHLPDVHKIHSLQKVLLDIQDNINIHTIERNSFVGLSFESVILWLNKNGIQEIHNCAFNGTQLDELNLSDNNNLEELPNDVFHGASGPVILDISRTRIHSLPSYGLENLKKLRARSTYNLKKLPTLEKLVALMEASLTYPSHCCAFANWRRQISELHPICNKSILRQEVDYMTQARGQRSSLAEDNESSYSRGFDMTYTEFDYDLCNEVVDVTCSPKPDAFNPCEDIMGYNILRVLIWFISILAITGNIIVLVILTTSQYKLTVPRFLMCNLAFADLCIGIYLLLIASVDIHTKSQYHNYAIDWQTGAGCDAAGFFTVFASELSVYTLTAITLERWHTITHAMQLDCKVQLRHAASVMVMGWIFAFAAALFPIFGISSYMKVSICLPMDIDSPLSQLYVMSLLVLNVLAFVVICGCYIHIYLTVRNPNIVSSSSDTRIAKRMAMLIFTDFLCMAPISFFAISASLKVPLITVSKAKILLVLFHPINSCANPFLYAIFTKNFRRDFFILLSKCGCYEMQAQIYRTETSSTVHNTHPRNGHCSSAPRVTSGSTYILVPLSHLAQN
MEASURED ATTRIBUTE: Activity (%)
Enter your answer as a number in %; do not include the unit.

// sample Cc1ccccc1N1CCN(c2ccc(C(=O)NCCCN3CCCC3=O)cc2NC(=O)c2coc(C3CC3)n2)CC1C (stereo unspecified) , its Activity was 36

// sample "O=C(NCCCN1CCCC1=O)c1ccc(N2CCN(c3ccccn3)CC2)c(NC(=O)c2ccco2)c1" , its Activity was 20

// sample "O=C(NCCCN1CCCC1=O)c1ccc(N2CCNCC2)c(NC(=O)c2ccco2)c1" , its Activity was 1

// sample "Cc1ccccc1C1CCN(c2ccc(C(=O)NCCCN3CCCC3=O)cc2NC(=O)c2ccco2)CC1" , its Activity was 1

// sample "Cc1ccc(N2CCN(c3ccc(C(=O)NCCCN4CCCC4=O)cc3NC(=O)c3coc(C4CC4)n3)CC2)cc1" , its Activity was 13

// sample "COc1ccccc1N1CCN(c2ccc(C(=O)NCCCN3CCCC3=O)cc2NC(=O)c2ccco2)CC1" , its Activity was 20

----------
Consider the following compounds; for each one, report its pEC50.
biological target: Follicle-stimulating hormone receptor (Homo sapiens); experiment: Positive allosteric modulation of human FSH receptor expressed in CHO cells assessed as effect on FSH-induced cAMP accumulation after 1 hr by HTRF assay
# pEC50 = -log10(concentration in molar units)

// sample "Cc1ccccc1N1CCN(c2ccc(C(=O)NCCCc3nn[nH]n3)cc2NC(=O)c2coc(C3CC3)n2)CC1" , its pEC50 was 7.05

// sample "Cc1ccccc1N1CCN(c2ccc(C(=O)NCCCN3CCOC3=O)cc2NC(=O)c2ccco2)CC1" , its pEC50 was 7.55

// sample "Cc1ccccc1N1CCN(c2ccc(C(=O)NCc3cccc(C(N)=O)c3)cc2NC(=O)c2ccco2)CC1" , its pEC50 was 7.34

// sample "Cc1ccccc1N1CCN(c2ccc(C(=O)N[C@@H]3CCC[C@@H](O)[C@H]3O)cc2NC(=O)c2coc(C3CC3)n2)CC1" , its pEC50 was 7.28

// sample "Cc1ccccc1N1CCN(c2ccc(C(=O)NCCCN3C(=O)CCC3=O)cc2NC(=O)c2ccco2)CC1" , its pEC50 was 6.74

// sample "Cc1ccccc1N1CCN(c2ccc(C(=O)NCCCN3CCCC3=O)cc2NC(=O)c2coc(C3CC3)n2)CC1" , its pEC50 was 7.00
